testedOn: human BACE-2 (Homo sapiens (Human), UniProt Q9Y5Z0)
Sequence (Q9Y5Z0 63-473): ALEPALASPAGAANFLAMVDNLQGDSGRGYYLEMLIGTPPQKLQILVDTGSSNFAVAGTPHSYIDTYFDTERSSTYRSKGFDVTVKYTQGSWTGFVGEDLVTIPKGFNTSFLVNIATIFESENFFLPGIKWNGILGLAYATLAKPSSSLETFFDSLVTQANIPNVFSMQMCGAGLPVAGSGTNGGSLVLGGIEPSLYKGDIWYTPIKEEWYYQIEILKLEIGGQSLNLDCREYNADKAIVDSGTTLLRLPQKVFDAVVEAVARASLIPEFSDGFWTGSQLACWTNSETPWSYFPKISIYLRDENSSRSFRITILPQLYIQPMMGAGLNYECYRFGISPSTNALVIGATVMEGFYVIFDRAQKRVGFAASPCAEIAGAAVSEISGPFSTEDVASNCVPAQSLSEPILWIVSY
experimentalProtocol: Test 2: Inhibition of Human BACE-2
statedConditions: recombinant BACE-2, pH 4.5, fluorescence-quenched substrate
Description: Test 2: Inhibition of Human BACE-2 Recombinant BACE-2 (extracellular domain, expressed in baculovirus and purified using standard methods) at 0.1 to 1 nM concentrations is incubated with the test compound at various concentrations for 1 hour at room temperature in 100 mM acetate buffer, pH 4.5, containing 0.1% CHAPS. […] Fluorescence increase was followed for 15 min, in 1 minute's intervals. […]
# reported IC50; entries follow

Observe how each entry below is paired with its result.
Cc1cn2ccnc(Nc3ccc(F)c([C@]4(C(F)F)COCC(N)=N4)c3)c2n1 [Example 12]; 0.072 µM
C[C@@]1(c2cccc(Nc3n[nH]c4ccccc34)c2)COCC(N)=N1; > 10 µM

With those in mind, consider the next compound.
Exercise: Please report the recorded IC50 for `COc1c(N)ncnc1Nc1ccc(F)c([C@]2(C(F)F)COCC(N)=N2)c1` .
Key: > 10 µM

* * *

testedOn: human BACE-1 (Homo sapiens (Human), UniProt P56817)
Sequence (P56817 46-457): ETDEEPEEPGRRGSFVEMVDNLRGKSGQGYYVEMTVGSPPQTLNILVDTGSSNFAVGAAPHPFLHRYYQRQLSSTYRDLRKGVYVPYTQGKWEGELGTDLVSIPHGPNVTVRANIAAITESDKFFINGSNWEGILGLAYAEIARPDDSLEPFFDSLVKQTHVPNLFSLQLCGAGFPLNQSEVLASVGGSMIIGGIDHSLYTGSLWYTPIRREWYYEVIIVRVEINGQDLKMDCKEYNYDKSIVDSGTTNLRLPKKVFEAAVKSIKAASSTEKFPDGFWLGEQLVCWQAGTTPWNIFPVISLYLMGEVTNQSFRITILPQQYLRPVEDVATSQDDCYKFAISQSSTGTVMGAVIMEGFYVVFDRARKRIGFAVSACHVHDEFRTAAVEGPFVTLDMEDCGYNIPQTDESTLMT
experimentalProtocol: Test 1: Inhibition of Human BACE-1
statedConditions: recombinant BACE-1, pH 4.5, fluorescence-quenched substrate
Structures can show the parent of a compound that is named as a salt.
# reported IC50; entries follow
The reply should contain only the number, in µM.

Observe how each entry below is paired with its result.
CC1(c2cc(NCc3ccco3)ccc2F)COCC(N)=N1 (centres unmarked); 1.9
COc1cncnc1Nc1ccc(F)c([C@]2(C(F)F)COCC(N)=N2)c1; 1.5
NC1=N[C@@](c2cc(Nc3ncccc3OC(F)F)ccc2F)(C(F)F)COC1; 0.97
C[C@@]1(c2nc(Nc3ncnc4cc(C(F)(F)F)cnc34)ccc2F)CO[C@@](C)(C(F)(F)F)C(N)=N1; 0.068
NC1=NC(CF)(c2cc(NCc3ccc(Br)cc3Cl)ccc2F)COC1 (centres unmarked); 3.6

Exercise: Under human BACE-1 (Homo sapiens (Human), UniProt P56817): IC50 value of `CCOc1cccnc1Nc1ccc(F)c([C@]2(C(F)F)COCC(N)=N2)c1` ?
Key: 1.3

Exercise: Under human BACE-1 (Homo sapiens (Human), UniProt P56817): IC50 value of `COc1cccnc1Nc1ccc(F)c([C@]2(C)CO[C@@](C)(C(F)(F)F)C(N)=N2)c1` ?
Key: 0.21

Exercise: Under human BACE-1 (Homo sapiens (Human), UniProt P56817): IC50 value of `COc1cccnc1Nc1ccc(F)c([C@]2(C)CO[C@@](C)(C(F)(F)F)C(N)=N2)n1` ?
Key: 6.4

Exercise: Under human BACE-1 (Homo sapiens (Human), UniProt P56817): IC50 value of `NC1=N[C@@](c2cc(Nc3nccn4c(Br)cnc34)ccc2F)(C(F)F)COC1` ?
Key: 0.57

Exercise: Under human BACE-1 (Homo sapiens (Human), UniProt P56817): IC50 value of `NC1=N[C@@](c2cc(Nc3ncccn3)ccc2F)(C(F)F)COC1` ?
Key: 8.6

Exercise: Under human BACE-1 (Homo sapiens (Human), UniProt P56817): IC50 value of `Cc1cn2ccnc(Nc3ccc(F)c([C@]4(C(F)F)COCC(N)=N4)c3)c2n1` ?
Key: 0.35

Exercise: Under human BACE-1 (Homo sapiens (Human), UniProt P56817): IC50 value of `COc1ccnc(Nc2ccc(F)c([C@]3(C(F)F)COCC(N)=N3)c2)n1` ?
Key: 1.8

Exercise: Under human BACE-1 (Homo sapiens (Human), UniProt P56817): IC50 value of `NC1=N[C@@](c2cc(Nc3ncccc3OCC(F)F)ccc2F)(C(F)F)COC1` ?
Key: 1.3

Exercise: Under human BACE-1 (Homo sapiens (Human), UniProt P56817): IC50 value of CC1(c2cccc(Nc3noc4ccccc34)c2)COCC(N)=N1 (centres unmarked) ?
Key: 8.9

Exercise: Under human BACE-1 (Homo sapiens (Human), UniProt P56817): IC50 value of C[C@@]1(c2cc(Nc3ncnc4cc(Cl)cnc34)ccc2F)CO[C@@](C)(C(F)(F)F)C(N)=N1 [Example 23, di-hydrochloride] ?
Key: 0.04

* * *

# reported IC50; entries follow
testedOn: human BACE-2 (Homo sapiens (Human))
experimentalProtocol: Test 2: Inhibition of Human BACE-2
statedConditions: recombinant BACE-2, pH 4.5, fluorescence-quenched substrate

COc1cccnc1Nc1ccc(F)c([C@]2(C(F)F)COCC(N)=N2)c1 [Example 15]; 89 nM
NC1=N[C@@](c2cc(Nc3ncccc3OC(F)F)ccc2F)(C(F)F)COC1 [Example 22]; 340 nM
COc1cccnc1Nc1ccc(F)c([C@]2(C)CO[C@@](C)(C(F)(F)F)C(N)=N2)c1 [Example 25]; 27 nM
Cn1nc(Nc2cccc([C@]3(C)COCC(N)=N3)c2)c2ccccc21 [Example 32]; > 10000 nM

Exercise: Please report the recorded IC50 for NC1=NC(c2cc(NCc3cc(Br)co3)ccc2F)(C(F)F)COC1 (centres unmarked) [Example 6] .
Key: 8300 nM

* * *

Test system: amyloid peptide 1-40 release
experimentalProtocol: Test 4: Inhibition of Cellular Release of Amyloid Peptide 1-40
Assay type: cell-based
statedConditions: Cricetulus griseus; Chinese hamster ovary cells transfected with the human gene for amyloid precursor protein, 24 hours; read-out: Amyloid-β1-40 release IC50
Method: Chinese hamster ovary cells are transfected with the human gene for amyloid precursor protein. The cells are plated at a density of 8000 cells/well into 96-well microtiter plates and cultivated for 24 hours in DMEM cell culture medium containing 10% FCS. […] The potency of the compound is calculated from the percentage of inhibition of amyloid peptide release as a function of the test compound concentration.
recordedMetric: IC50 (nM)
The reply should contain only the number, in nM.

Observe how each entry below is paired with its result.
C[C@@]1(c2nc(Nc3ncnc4cc(C(F)(F)F)cnc34)ccc2F)CO[C@@](C)(C(F)(F)F)C(N)=N1 [Example 28]; 150
NC1=N[C@@](c2cc(Nc3nccc4cc(Br)cnc34)ccc2F)(C(F)F)COC1 [Example 8]; 33
Cc1cn2ccnc(Nc3ccc(F)c([C@]4(C(F)F)COCC(N)=N4)c3)c2n1 [Example 12]; 86

Exercise: Please report the recorded IC50 for NC1=N[C@@](c2cc(Nc3ncccc3OC(F)F)ccc2F)(C(F)F)COC1 [Example 22] .
Key: 240

Exercise: Please report the recorded IC50 for COc1nccnc1Nc1ccc(F)c([C@]2(C(F)F)COCC(N)=N2)c1 [Example 18] .
Key: 670

Exercise: Please report the recorded IC50 for N#Cc1cnc2c(Nc3ccc(F)c([C@]4(C(F)F)COCC(N)=N4)c3)nccc2c1 [Example 9] .
Key: 5

Exercise: Please report the recorded IC50 for COc1cccnc1Nc1ccc(F)c([C@]2(C)CO[C@@](C)(C(F)(F)F)C(N)=N2)n1 [Example 31] .
Key: 1000

Exercise: Please report the recorded IC50 for COc1cccnc1Nc1ccc(F)c([C@]2(C(F)F)COCC(N)=N2)c1 [Example 15] .
Key: 56

* * *

testedOn: human BACE-2 (Homo sapiens (Human), UniProt Q9Y5Z0)
experimentalProtocol: Test 2: Inhibition of Human BACE-2
statedConditions: recombinant BACE-2, pH 4.5, fluorescence-quenched substrate
Where a name gives a salt, the structure may show the parent alone.
# reported pIC50; entries follow
The meaning of pIC50 here: minus log10 of the concentration in molar units.

NC1=N[C@@](c2cc(Nc3nccn4c(Br)cnc34)ccc2F)(C(F)F)COC1; 5.85
NC1=NC(CF)(c2cc(NCc3ccc(Br)cc3Cl)ccc2F)COC1 (stereo not shown); 5.28
NC1=N[C@@](c2cc(Nc3ncnc4cc(Cl)cnc34)ccc2F)(C(F)F)COC1 [Example 7, di-hydrochloride]; 7.49

Exercise: Please report the recorded pIC50 for `C[C@@]1(c2nc(Nc3ncnc4cc(C(F)(F)F)cnc34)ccc2F)CO[C@@](C)(C(F)(F)F)C(N)=N1` .
Key: 6.70

* * *

testedOn: human BACE-2 (Homo sapiens (Human), UniProt Q9Y5Z0)
experimentalProtocol: Test 2: Inhibition of Human BACE-2
Type: biochemical
statedConditions: recombinant BACE-2, pH 4.5, fluorescence-quenched substrate
# reported pIC50; entries follow
The meaning of pIC50 here: minus log10 of the concentration in molar units.

Observe how each entry below is paired with its result.
COc1ccnc(Nc2ccc(F)c([C@]3(C(F)F)COCC(N)=N3)c2)n1; 6.17
CC1(c2cc(NCc3ccco3)ccc2F)COCC(N)=N1 (centres unmarked); 5.62
COc1nccnc1Nc1ccc(F)c([C@]2(C(F)F)COCC(N)=N2)c1; 5.89

With those in mind, consider the next compound.
Exercise: Please report the recorded pIC50 for `C[C@@]1(c2cc(Nc3ncnc4cc(C(F)(F)F)cnc34)ccc2F)CO[C@@](C)(C(F)(F)F)C(N)=N1` .
Key: 6.55
